test: Cytotoxicity against human NCI-H1299 cells assessed as decrease in cell viability after 48 hrs by Alamar blue assay
Format: functional, cell-based
measurement context: NCI-H1299, 48 h
measured attribute: IC50 (µM)

[[record]]
smiles_code = "O[C@]12C=C(c3nccc4c3[nH]c3ccccc34)[C@@H]3CCN(CCCC/C=C\\CC1)C[C@@]31C[C@@H]3/C=C\\CCCCN3[C@H]12"
result_number = 1.5

[[record]]
smiles_code = "CN(CCNCc1nccc2c1[nH]c1ccccc12)CCNCc1nccc2c1[nH]c1ccccc12"
result_number = 1.6

[[record]]
smiles_code = "CN(CCN)CCNCc1nccc2c1[nH]c1ccccc12"
result_number = 15.1


----------
test: Cytotoxicity against human NCI-H1993 cells assessed as decrease in cell viability after 48 hrs by Alamar blue assay
Assay type: functional, cell-based
measurement context: NCI-H1993, 48 h
Items are presented alongside their recorded IC50.
measured attribute: IC50 (µM)

[[record]]
molecule = "CN(CCNCc1nccc2c1[nH]c1ccccc12)CCNCc1nccc2c1[nH]c1ccccc12"
unit_of_measurement = "µM"
result_number = 1.2

[[record]]
molecule = "O[C@]12C=C(c3nccc4c3[nH]c3ccccc34)[C@@H]3CCN(CCCC/C=C\\CC1)C[C@@]31C[C@@H]3/C=C\\CCCCN3[C@H]12 [MANZAMINE A]"
unit_of_measurement = "µM"
result_number = 3.9

[[record]]
molecule = "CN(CCN)CCNCc1nccc2c1[nH]c1ccccc12"
unit_of_measurement = "µM"
result_number = 9.3

